- system: Histone deacetylase 3 (Homo sapiens)
- Sequence (O15379 whole entry): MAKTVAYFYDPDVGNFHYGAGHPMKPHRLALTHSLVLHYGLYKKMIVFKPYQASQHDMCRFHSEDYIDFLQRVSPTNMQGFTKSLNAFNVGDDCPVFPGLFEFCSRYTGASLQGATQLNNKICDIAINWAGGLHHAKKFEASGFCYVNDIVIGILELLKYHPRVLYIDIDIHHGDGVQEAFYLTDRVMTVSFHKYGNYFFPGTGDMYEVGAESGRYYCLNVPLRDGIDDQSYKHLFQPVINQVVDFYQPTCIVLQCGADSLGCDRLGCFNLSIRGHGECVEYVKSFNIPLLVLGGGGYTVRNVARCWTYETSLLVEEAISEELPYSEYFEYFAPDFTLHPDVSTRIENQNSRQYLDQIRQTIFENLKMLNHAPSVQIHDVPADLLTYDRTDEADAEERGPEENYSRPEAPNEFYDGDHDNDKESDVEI
reported.metric: IC50

| smiles.data | reported.metric | assay.result |
| --- | --- | --- |
| Cc1c(CNCc2ccc(C(=O)Nc3cc(-c4ccccc4)ccc3N)cc2)cnn1C | IC50 | 19.3 µM |

* * *

- system: Histone deacetylase 1 (Homo sapiens, UniProt Q13547)
- Sequence (Q13547 whole entry): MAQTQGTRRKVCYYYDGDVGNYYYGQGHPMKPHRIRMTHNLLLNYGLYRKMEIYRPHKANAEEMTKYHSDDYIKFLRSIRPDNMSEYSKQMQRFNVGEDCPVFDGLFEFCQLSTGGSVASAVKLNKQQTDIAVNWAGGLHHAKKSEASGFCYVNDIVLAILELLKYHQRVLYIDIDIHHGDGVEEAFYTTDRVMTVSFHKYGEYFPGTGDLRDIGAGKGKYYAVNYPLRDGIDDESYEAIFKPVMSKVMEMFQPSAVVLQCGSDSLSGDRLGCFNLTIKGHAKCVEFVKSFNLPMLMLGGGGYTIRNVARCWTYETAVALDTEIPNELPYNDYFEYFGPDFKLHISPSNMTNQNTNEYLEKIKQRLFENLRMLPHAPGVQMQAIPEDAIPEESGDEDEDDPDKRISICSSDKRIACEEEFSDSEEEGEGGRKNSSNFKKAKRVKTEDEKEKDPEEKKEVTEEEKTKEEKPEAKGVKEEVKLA

| smiles.data | units | IC50 |
| --- | --- | --- |
| Nc1ccc(-c2ccc(F)cc2)cc1NC(=O)c1ccc(CN2CCC3(CCCN3)CC2)cc1 | nM | 13 |
